targetOfAssay: mouse RAR gamma receptor (Mus musculus)
Sequence (P18911 185-419 limits assumed): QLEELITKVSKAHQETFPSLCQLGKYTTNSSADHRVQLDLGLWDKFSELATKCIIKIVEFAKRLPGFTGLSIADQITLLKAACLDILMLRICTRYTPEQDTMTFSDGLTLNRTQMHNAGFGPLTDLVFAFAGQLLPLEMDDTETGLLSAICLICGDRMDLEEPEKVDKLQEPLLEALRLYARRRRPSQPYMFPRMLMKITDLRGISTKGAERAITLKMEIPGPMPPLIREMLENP
particulars: mouse; ratio of relative EC50s RARγ/RARα
So I've got a bunch of compounds here, and I need their γ/α ratio values.

{"testSmiles": "O=C(O)c1ccc(NC(=O)c2cc(Cl)c(OC3CCCC3)c(OC3CCCC3)c2)cc1", "experimentalValue": 336}
{"testSmiles": "O=C(O)c1ccc(NC(=O)c2cc(Cl)c(OC3CCC3)c(OC3CCC3)c2)cc1", "experimentalValue": 447}
{"testSmiles": "Cc1cc(NC(=O)c2cc(Cl)c(OC(C)C)c(OC(C)C)c2)ccc1C(=O)O", "experimentalValue": 2947}

Give one value of γ/α ratio per listed compound.
1. COc1c(Cl)cc(C(=O)Nc2ccc(C(=O)O)cc2)cc1Cl
2. CCOc1c(Cl)cc(C(=O)Nc2ccc(C(=O)O)c(O)c2)cc1Cl
3. CCOc1cc(C(=O)Nc2ccc(C(=O)O)c(C)c2)cc(Cl)c1OC(C)C
4. CCOc1c(Cl)cc(NC(=O)c2ccc(C(=O)O)cc2)cc1Cl
5. CCOc1c(Cl)cc(C(=O)Nc2ccc(C(=O)O)c(F)c2)cc1Cl
6. CC(C)Oc1cc(C(=O)Nc2ccc(C(=O)O)c(F)c2)cc(Cl)c1OC(C)C
7. CCOc1c(Cl)cc(C(=O)Nc2ccc(C(=O)O)c(C)c2)cc1OCC1CC1

Response:
[195, 149, 1675, ">3600", ">80", 300, "38,461"]

Give one value of γ/α ratio per listed compound.
1. CCOc1c(Cl)cc(C(=O)Nc2ccc(C(=O)O)c(F)c2)cc1OC(C)C
2. CCCOc1c(Cl)cc(C(=O)Nc2ccc(C(=O)O)cc2)cc1Cl
3. CCOc1c(Cl)cc(C(=O)Nc2ccc(C(=O)O)c(Cl)c2)cc1Cl

Response:
1: 6169; 2: 82; 3: >50

Give one value of γ/α ratio per listed compound.
1. CCOc1cc(C(=O)Nc2ccc(C(=O)O)cc2)cc(OC(C)C)c1OCC
2. CC(C)Oc1cc(C(=O)Nc2ccc(C(=O)O)cc2)cc(OC(C)C)c1OC(C)C
3. CCOc1c(Cl)cc(C(=O)Nc2ccc(C(=O)O)c(C(F)(F)F)c2)cc1Cl

Response:
34
8
11

Give one value of γ/α ratio per listed compound.
1. COc1c(Cl)cc(C(=O)Nc2ccc(C(=O)O)c(C)c2)cc1OC(C)C
2. CC(C)Oc1c(Cl)cc(C(=O)Nc2ccc(C(=O)O)cc2)cc1Cl

Response:
1: 509; 2: 119

====

procedureSummary: PK studies in rats
Assay type: in vivo, Sprague-Dawley rats
particulars: 10 mg/kg po, 8% Ethanol/92% PEG-400, n = 4
So I've got a bunch of compounds here, and I need their rat pK AUC po values.

Example entries begin here.
{"compound": "CCOc1c(Cl)cc(C(=O)Nc2ccc(C(=O)O)c(C)c2)cc1Cl [Compound 18]", "rat pK AUC po": "74,396 ng·min mL^−1"}
{"compound": "CCOc1c(Cl)cc(C(=O)Nc2ccc(C(=O)O)c(C)c2)cc1OC(C)C [Compound 56]", "rat pK AUC po": "70,765 ng·min mL^−1"}
{"compound": "CC(C)Oc1cc(C(=O)Nc2ccc(C(=O)O)cc2)cc(Cl)c1OC(C)C [Compound 39]", "rat pK AUC po": "43,569 ng·min mL^−1"}
{"compound": "COc1c(Cl)cc(C(=O)Nc2ccc(C(=O)O)c(F)c2)cc1OC(C)C [Compound 53]", "rat pK AUC po": "10,871 ng·min mL^−1"}
{"compound": "COc1c(Cl)cc(C(=O)Nc2ccc(C(=O)O)cc2)cc1OC(C)C [Compound 51]", "rat pK AUC po": "50,940 ng·min mL^−1"}
{"compound": "CCOc1c(Cl)cc(C(=O)Nc2ccc(C(=O)O)c(F)c2)cc1OC(C)C [Compound 54]", "rat pK AUC po": "15,376 ng·min mL^−1"}
{"compound": "Cc1cc(NC(=O)c2cc(Cl)c(OC(C)C)c(OC(C)C)c2)ccc1C(=O)O [Compound 44]", "rat pK AUC po": "77,670 ng·min mL^−1"}

Prompt: Give the measured rat pK AUC po of O=C(O)c1ccc(NC(=O)c2cc(Cl)c(OC3CCCC3)c(Cl)c2)cc1 [Compound 15] .
Response: 1674 ng·min mL^−1

====

targetOfAssay: Cyp 450 1A2 (Homo sapiens, UniProt P05177)
Construct: tissue Cyprotex (CRO); host or cells: human liver microsomes
Sequence (P05177 whole entry): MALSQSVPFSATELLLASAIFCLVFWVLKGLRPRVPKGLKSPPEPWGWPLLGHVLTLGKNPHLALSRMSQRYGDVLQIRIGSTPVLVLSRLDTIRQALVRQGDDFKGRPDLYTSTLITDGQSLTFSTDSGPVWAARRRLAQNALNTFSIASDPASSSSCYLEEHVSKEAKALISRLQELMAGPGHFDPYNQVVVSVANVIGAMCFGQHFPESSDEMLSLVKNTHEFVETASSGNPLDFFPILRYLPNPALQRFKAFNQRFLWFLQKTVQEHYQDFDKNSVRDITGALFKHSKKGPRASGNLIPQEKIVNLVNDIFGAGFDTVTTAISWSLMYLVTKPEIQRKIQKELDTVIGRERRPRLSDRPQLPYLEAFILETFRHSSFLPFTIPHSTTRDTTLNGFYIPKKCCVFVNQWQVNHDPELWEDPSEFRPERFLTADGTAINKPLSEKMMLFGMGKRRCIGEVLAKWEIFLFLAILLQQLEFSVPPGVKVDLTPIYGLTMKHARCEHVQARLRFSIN
procedureSummary: Cytochrome P450 inhibition in human liver microsomes
Assay type: in vitro ADME
particulars: human liver microsomes
Experimental: The five main cytochrome P450 isoforms (CYP1A, CYP2C9, CYP2C19, CYP2D6 and CYP3A4) were investigated in the P450 inhibition assay. […] At the end of the incubation, the formation of the metabolite was monitored by LC-MS/MS (or fluorescence in the case of CYP1A) at each of the test compound concentrations.
observationType: IC50

Prompt: Give the measured IC50 of `CCOc1c(Cl)cc(C(=O)Nc2ccc(C(=O)O)c(C)c2)cc1OC(C)C` .
Response: > 25 µM

====

procedureSummary: Stability and intrinsic clearance in cryopreserved hepatocytes
particulars: rat
observationType: hepatocyte CLint at 30 μM

Prompt: Give the measured hepatocyte CLint at 30 μM of CCOc1c(Cl)cc(C(=O)Nc2ccc(C(=O)O)c(C)c2)cc1OC(C)C [Compound 56] .
Response: < 3 µL/min/1e6 cells

====

targetOfAssay: Cyp 450 2D6 (Homo sapiens)
Construct: tissue Cyprotex (CRO); host or cells: human liver microsomes
Sequence (P10635 whole entry): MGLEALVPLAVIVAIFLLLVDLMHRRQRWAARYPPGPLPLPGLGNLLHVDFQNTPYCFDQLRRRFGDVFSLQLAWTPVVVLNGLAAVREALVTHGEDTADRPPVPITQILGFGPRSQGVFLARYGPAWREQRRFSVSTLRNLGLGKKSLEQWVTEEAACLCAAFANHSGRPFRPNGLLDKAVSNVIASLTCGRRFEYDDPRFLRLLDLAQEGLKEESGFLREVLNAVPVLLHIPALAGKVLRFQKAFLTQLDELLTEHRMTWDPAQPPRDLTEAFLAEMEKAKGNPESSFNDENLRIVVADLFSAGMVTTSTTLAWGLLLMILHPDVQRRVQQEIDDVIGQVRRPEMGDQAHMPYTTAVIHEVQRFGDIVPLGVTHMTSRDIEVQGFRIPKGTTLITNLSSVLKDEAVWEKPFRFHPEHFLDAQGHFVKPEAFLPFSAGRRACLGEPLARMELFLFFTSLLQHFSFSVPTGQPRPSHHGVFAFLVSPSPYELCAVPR
procedureSummary: Cytochrome P450 inhibition in human liver microsomes
Type: in vitro ADME
particulars: human liver microsomes
Method: The five main cytochrome P450 isoforms (CYP1A, CYP2C9, CYP2C19, CYP2D6 and CYP3A4) were investigated in the P450 inhibition assay. […] At the end of the incubation, the formation of the metabolite was monitored by LC-MS/MS (or fluorescence in the case of CYP1A) at each of the test compound concentrations.
pIC50: −log10 of the molar value.
observationType: pIC50

Prompt: Give the measured pIC50 of CCOc1c(Cl)cc(C(=O)Nc2ccc(C(=O)O)c(C)c2)cc1OC(C)C [Compound 56] .
Response: < 4.60

====

targetOfAssay: Cyp 450 2C19 (Homo sapiens)
Construct: tissue Cyprotex (CRO); host or cells: human liver microsomes
Sequence (P33261 whole entry): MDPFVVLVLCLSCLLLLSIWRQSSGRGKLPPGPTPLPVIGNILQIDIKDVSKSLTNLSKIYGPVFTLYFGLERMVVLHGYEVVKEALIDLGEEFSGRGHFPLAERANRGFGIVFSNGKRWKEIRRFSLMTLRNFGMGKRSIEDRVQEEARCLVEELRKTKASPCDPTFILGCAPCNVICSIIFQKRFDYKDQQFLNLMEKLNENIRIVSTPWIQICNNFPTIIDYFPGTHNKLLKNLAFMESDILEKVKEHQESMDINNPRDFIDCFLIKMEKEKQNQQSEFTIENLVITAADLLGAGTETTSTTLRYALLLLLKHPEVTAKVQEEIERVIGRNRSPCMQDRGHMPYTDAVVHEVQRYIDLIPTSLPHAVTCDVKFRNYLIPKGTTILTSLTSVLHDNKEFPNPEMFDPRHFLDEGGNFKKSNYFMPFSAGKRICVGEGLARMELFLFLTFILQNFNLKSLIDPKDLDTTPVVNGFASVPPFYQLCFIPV
procedureSummary: Cytochrome P450 inhibition in human liver microsomes
Format: in vitro ADME
particulars: human liver microsomes
observationType: IC50

Prompt: Return IC50 measured with Cyp 450 2C19 (Homo sapiens) given this compound: CCOc1c(Cl)cc(C(=O)Nc2ccc(C(=O)O)c(C)c2)cc1OC(C)C [Compound 56]
Response: > 25 µM

====

targetOfAssay: mouse RAR beta receptor (Mus musculus)
Sequence (P22605 210-444 limits assumed): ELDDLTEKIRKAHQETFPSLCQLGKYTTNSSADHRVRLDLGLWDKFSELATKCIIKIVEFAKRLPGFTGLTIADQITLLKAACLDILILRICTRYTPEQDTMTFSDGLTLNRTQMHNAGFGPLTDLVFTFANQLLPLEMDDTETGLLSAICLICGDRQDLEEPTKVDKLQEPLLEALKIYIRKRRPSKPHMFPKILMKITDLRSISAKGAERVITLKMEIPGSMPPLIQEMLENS
particulars: ratio of relative EC50s RARβ/RARα
# if measured β/α ratio < 60: 1  # else: -1

{"compound": "CC(C)Oc1cc(C(=O)Nc2ccc(C(=O)O)c(F)c2)cc(Cl)c1OC(C)C", "labelClass": 1}
{"compound": "CCCOc1c(Cl)cc(C(=O)Nc2ccc(C(=O)O)cc2)cc1Cl", "labelClass": 1}
{"compound": "CCCCOc1c(Cl)cc(C(=O)Nc2ccc(C(=O)O)cc2)cc1Cl", "labelClass": 1}
{"compound": "CCOc1c(OC2CCCC2)cc(C(=O)Nc2ccc(C(=O)O)cc2)cc1OC1CCCC1", "labelClass": -1}

Prompt: Strictly below 60: is that where β/α ratio of `CCOc1c(Cl)cc(C(=O)Nc2ccc(C(=O)O)c(F)c2)cc1Cl` sits?
Response: -1

Prompt: Strictly below 60: is that where β/α ratio of `CC(C)Oc1c(Cl)cc(C(=O)Nc2ccc(C(=O)O)cc2)cc1Cl` sits?
Response: -1

Prompt: Strictly below 60: is that where β/α ratio of `CCOc1c(Cl)cc(C(=O)Nc2ccc(C(=O)O)c(C(F)(F)F)c2)cc1Cl` sits?
Response: 1

Prompt: Strictly below 60: is that where β/α ratio of CC1(C)CCC(C)(C)c2c1cc(C(=O)Nc1cc(F)c(C(=O)O)c(F)c1)c(O)c2Cl [Compound 4, reference compound] sits?
Response: -1

Prompt: Strictly below 60: is that where β/α ratio of `CCOc1c(Cl)cc(NC(=O)c2ccc(C(=O)O)cc2)cc1Cl` sits?
Response: 1

====

procedureSummary: Stability and intrinsic clearance in cryopreserved hepatocytes
particulars: cynomolgus monkey
observationType: hepatocyte CLint at 30 μM

Prompt: Give the measured hepatocyte CLint at 30 μM of CCOc1c(Cl)cc(C(=O)Nc2ccc(C(=O)O)c(C)c2)cc1OC(C)C [Compound 56] .
Response: < 3 µL/min/1e6 cells

====

procedureSummary: PK studies in rats
Format: in vivo, Sprague-Dawley rats
particulars: male, Sprague-Dawley, whole blood; rat, 10 mg/kg po vs 0.5 mg/kg iv, n = 4; read-out: rat pK F%
observationType: bioavailability (%)
One number for each entry, in %.

Example entries begin here.
{"molecule": "COc1c(Cl)cc(C(=O)Nc2ccc(C(=O)O)c(F)c2)cc1OC(C)C [Compound 53]", "unitsText": "%", "bioavailability": 15}
{"molecule": "COc1c(Cl)cc(C(=O)Nc2ccc(C(=O)O)cc2)cc1OC(C)C [Compound 51]", "unitsText": "%", "bioavailability": 13}
{"molecule": "CC(C)Oc1cc(C(=O)Nc2ccc(C(=O)O)cc2)cc(Cl)c1OC(C)C [Compound 39]", "unitsText": "%", "bioavailability": 39}
{"molecule": "CCOc1c(Cl)cc(C(=O)Nc2ccc(C(=O)O)c(C)c2)cc1Cl [Compound 18]", "unitsText": "%", "bioavailability": 12}
{"molecule": "O=C(O)c1ccc(NC(=O)c2cc(Cl)c(OC3CCCC3)c(Cl)c2)cc1 [Compound 15]", "unitsText": "%", "bioavailability": 0.3}
{"molecule": "CCOc1c(Cl)cc(C(=O)Nc2ccc(C(=O)O)c(C)c2)cc1OC(C)C [Compound 56]", "unitsText": "%", "bioavailability": 40}
{"molecule": "Cc1cc(NC(=O)c2cc(Cl)c(OC(C)C)c(OC(C)C)c2)ccc1C(=O)O [Compound 44]", "unitsText": "%", "bioavailability": 66}

Prompt: Give the measured bioavailability of CCOc1c(Cl)cc(C(=O)Nc2ccc(C(=O)O)c(F)c2)cc1OC(C)C [Compound 54] .
Response: 12
